Tested on: MDA-MB-435
Assay: NCI tumour cell line growth inhibition, 48 h
Activity calls are given as the source filed them. Rule as the data show it: active = GI50 up to about 1.1 µM and inactive = higher.
Use one of these outcomes when replying: active, inactive

As a guide, the following entries are already answered.
C=C(C(=O)O)[C@@H]1C[C@@H]2O[C@H]1CC(C)=CCC/C(C)=C/CC[C@@]2(C)O : inactive
Cn1cnc([N+](=O)[O-])c1SCC(=O)O : inactive
COc1ccc(-c2oc3cc(OC)c(OC)c(OC)c3c(=O)c2OC)cc1OC : inactive
COC(=O)C1=C(C)NC2=C(C(=O)c3ccccc32)C1c1cn(-c2ccccc2)nc1-c1ccccc1 (stereo not drawn) : inactive
CCCCCC(/C=C/C1CCC(=O)C1)OCOCCOC (stereo not drawn) : inactive

Asked: Short answer needed: outcome of this test for O=[N+]([O-])c1cccc2nc3ccccc3c(NCCC[N+]3([O-])CCOCC3)c12 ?
Given back: active

Asked: Short answer needed: outcome of this test for CCOC(=O)CCCSCCCC(=O)CCCSCCCC(=O)OCC ?
Given back: inactive

Asked: Short answer needed: outcome of this test for OC(Cc1cc(CC(O)(C(F)(F)F)C(F)(F)F)nc(CC(O)(C(F)(F)F)C(F)(F)F)c1)(C(F)(F)F)C(F)(F)F ?
Given back: inactive

Asked: Short answer needed: outcome of this test for CCN(CC)CCOC(c1cc(OC)ccc1OC)c1ccc2n1-c1ccccc1OC2 (stereo not drawn) ?
Given back: inactive

Asked: Short answer needed: outcome of this test for Oc1cc(-c2cccc(Cl)c2)nc2ncccc12 ?
Given back: active

Asked: Short answer needed: outcome of this test for CC(=O)NC1C(CO)O[C@@H]2OC(C)(C)O[C@H]12 (stereo partly drawn) ?
Given back: inactive

Asked: Short answer needed: outcome of this test for CC1(C)O[C@@H]2COC(=O)[C@@H]2O1 ?
Given back: inactive

Asked: Short answer needed: outcome of this test for Cc1ccc(/C=C/C(=O)Oc2ccc(/C=C3\CCC/C(=C\c4ccc(OC(=O)/C=C/c5ccc(C)cc5)cc4)C3=O)cc2)cc1 ?
Given back: inactive

* * *

Test system: TK-10
Experiment: NCI tumour cell line growth inhibition, 48 h
Activity calls are given as the source filed them. Cut-off read from the data, not from the text of the source: active = GI50 up to about 1.1 µM and inactive = higher.
Known GI50 of a selection of compounds

Solved entries:
NC(Cc1ccc2nc3c4ccccc4c(=O)cc-3oc2c1)C(=O)O (stereo not drawn) : > 100 µM (inactive)
C[C@@H](NS(=O)(=O)c1ccc(NC(=O)c2ccccc2)cc1)C(=O)O : > 100 µM (inactive)

# next compound below
Asked: Provide value of GI50 for this record tested with TK-10: O=C1c2ccccc2C(=O)N1CCCCNOCCCN1C(=O)c2ccccc2C1=O
Given back: > 100 µM (inactive)

* * *

Known GI50 of a selection of compounds
Tested on: UO-31
Assay: NCI tumour cell line growth inhibition, 48 h
Activity calls are given as the source filed them. Cut-off read from the data, not from the text of the source: active = GI50 up to about 1.1 µM and inactive = higher.

CC(C)(C)c1cc(C(C)(C)C)c(SSc2c(C(C)(C)C)cc(C(C)(C)C)c(O)c2O)c(O)c1O : 6.18 µM (inactive)

# next compound below
Asked: Provide value of GI50 for this record tested with UO-31: CN1CCCC2[C@@H]3CCC4=C(O)C(=O)CC[C@]4(C)C3CC[C@@]21C (some centres undefined)
Given back: > 100 µM (inactive)

* * *

Test system: ACHN
Test: NCI tumour cell line growth inhibition, 48 h
The source made the active and inactive calls. Rule as the data show it: active = GI50 up to about 1.1 µM and inactive = higher.
Use one of these outcomes when replying: T = active, F = inactive

As a guide, the following entries are already answered.
CCCCCn1cnc2c1S(=O)(=O)N(C)C(NC(=O)c1ccccc1)=N2 : F
O=C(Nc1nnc(-c2ccc(Cl)cc2)o1)C(SC(=S)N1CCCCC1)c1ccccc1 (stereo not drawn) : F
Clc1ccc(CCn2cncn2)c(Cl)c1 : F
O=C(/C=C/c1ccccc1)Oc1ccc(C(=O)/C=C/c2ccc(Cl)cc2)cc1 : F
COc1cc(C2C3=C(COC3=O)Oc3cc4c(cc32)OCO4)cc(OC)c1O (stereo not drawn) : T

Asked: Short answer needed: outcome of this test for OC(c1ccsc1)c1cc2ccccc2s1 (stereo not drawn) ?
Given back: F

Asked: Short answer needed: outcome of this test for Cn1c2cn[nH]c(=O)c2c2ccc3ccccc3c21 ?
Given back: F

Asked: Short answer needed: outcome of this test for NC(=O)N/N=C1/c2ccccc2-n2nccc21 ?
Given back: F

* * *

System: NCI-H460
Assay: NCI tumour cell line growth inhibition, 48 h
The source made the active and inactive calls. No stated cut-off is given here; in the data, active = GI50 up to about 1.1 µM and inactive = higher.
Value type: GI50

Solved entries:
CCOc1cc2oc(C)cc(=O)c2c(OC)c1/C=N/c1ccc(Cn2c(C)nc3ccccc32)cc1 : > 100 µM (inactive)
CCCCCCCCCCCCCCCCOP(=O)(O)OCC(N)C(=O)O (centres undefined) : 17.1 µM (inactive)
COc1ccccc1/C(=N\OCCC(=O)O)c1cccs1 : > 100 µM (inactive)
Cc1cn([C@@H]2O[C@H](CO[Si](C)(C)C(C)(C)C)[C@]3(O[C@H]3C(=O)NO)[C@H]2O[Si](C)(C)C(C)(C)C)c(=O)[nH]c1=O : 1.69 µM (inactive)
CSC1=N/C(=C\c2ccco2)C(=O)N1CN1CCOCC1 : 13.9 µM (inactive)

Asked: Provide value of GI50 for this record tested with NCI-H460: OCC1C2C=CC(O2)[C@H]1CO (some centres undefined)
Given back: > 100 µM (inactive)

Asked: Provide value of GI50 for this record tested with NCI-H460: CC(C)Cc1cnc(CC(C)C)c(=O)[nH]1
Given back: > 100 µM (inactive)

Asked: Provide value of GI50 for this record tested with NCI-H460: Cc1ccc2c(=O)[nH]sc2c1
Given back: 53.3 µM (inactive)

Asked: Provide value of GI50 for this record tested with NCI-H460: Cc1c(C(=O)CC(=O)C(=O)Nc2cc(Cl)ccc2Cl)[n+]([O-])c2ccccc2[n+]1[O-]
Given back: 37 µM (inactive)

Asked: Provide value of GI50 for this record tested with NCI-H460: O=C(O)c1c(CC(Cc2ccc3c(c2)CCCC3)C(=O)O)ccc2c1CCCC2 (centres undefined)
Given back: > 100 µM (inactive)

Asked: Provide value of GI50 for this record tested with NCI-H460: COc1cc(C2c3cc4c(cc3[C@@H](Nc3cccc([N+](=O)[O-])c3)C3COC(=O)[C@H]23)OCO4)cc(OC)c1O (some centres undefined)
Given back: 0.02 µM (active)

Asked: Provide value of GI50 for this record tested with NCI-H460: COc1cc2c(cc1OC)C1=Cc3cc(OC)c(OC)cc3C(C)N1C=C2 (centres undefined)
Given back: 47.1 µM (inactive)

Asked: Provide value of GI50 for this record tested with NCI-H460: O=C(c1ccc(Cl)cc1)c1cnc(Nc2ccccc2Cl)s1
Given back: 25.3 µM (inactive)

Asked: Provide value of GI50 for this record tested with NCI-H460: Nc1nc(SCc2ccc([N+](=O)[O-])cc2)nc2c1ncn2C1OC(CO)C(O)C1O (centres undefined)
Given back: > 100 µM (inactive)

* * *

System: SF-539
Assay: NCI tumour cell line growth inhibition, 48 h
Activity calls are given as the source filed them. Cut-off read from the data, not from the text of the source: active = GI50 up to about 1.1 µM and inactive = higher.
Value type: GI50

Solved entries:
O=C1C=CC2(C=C1)O[C@H](CCc1ccccc1)[C@@H](CCc1ccccc1)O2 : > 100 µM (inactive)
Cc1cccc(-c2nnc(S)[nH]2)c1 : > 100 µM (inactive)

Asked: Entry O=S(=O)(O)C1=C2Sc3ccccc3N=C2c2ccccc2C1 : reported GI50 = ?
Given back: 11.9 µM (inactive)

Asked: Entry O=C(c1ccc(O)c([N+](=O)[O-])c1)c1ccc(O)c([N+](=O)[O-])c1 : reported GI50 = ?
Given back: 53.5 µM (inactive)

Asked: Entry CC(=O)Oc1ccc2c(c1OC(C)=O)CCC1C2=CC[C@]2(C)C(=O)CCC12 (stereo partly specified) : reported GI50 = ?
Given back: 14.2 µM (inactive)

Asked: Entry N=C(N)N/N=C/c1c(-c2ccc(Cl)cc2)nc2sccn12 : reported GI50 = ?
Given back: 1.83 µM (inactive)

Asked: Entry CCCCCCN(C(=O)Oc1ccccc1)C(C#N)c1ccccc1 (stereo unspecified) : reported GI50 = ?
Given back: > 100 µM (inactive)

Asked: Entry Cc1cccc2c(N)c3cccc(C(=O)NCC[N+](C)(C)[O-])c3nc12 : reported GI50 = ?
Given back: 6.82 µM (inactive)

Asked: Entry COC(=O)CC(C(C(C)=O)C(=O)OCc1ccccc1)N1C(=O)OCC1c1ccccc1 (stereo unspecified) : reported GI50 = ?
Given back: > 100 µM (inactive)

Asked: Entry CC(=O)NC(CS)C(=O)O (stereo unspecified) : reported GI50 = ?
Given back: 26100 µM (inactive)

Asked: Entry O=C(Nc1ccc(N=C=S)cc1Cl)c1cc(Br)cc(Br)c1O : reported GI50 = ?
Given back: 23.9 µM (inactive)

* * *

Test system: SF-268
Assay: NCI tumour cell line growth inhibition, 48 h
Active and inactive are the calls of the source. Rule as the data show it: active = GI50 up to about 1.1 µM and inactive = higher.
Known GI50 of a selection of molecules

CCOC(=O)C1(C(=O)OCC)C[C@@H](C)[C@@H](O)C1 : > 100 µM (inactive)
Nc1nc(SCc2ccc([N+](=O)[O-])cc2)nc2c1ncn2C1OC(CO)C(O)C1O (configuration not stated) : > 100 µM (inactive)
COC(=O)CC(C(C(C)=O)C(=O)OCc1ccccc1)N1C(=O)OCC1c1ccccc1 (configuration not stated) : > 100 µM (inactive)
CCCCCC(=O)Nc1[nH]nnc1C(N)=O : > 100 µM (inactive)

Asked: Entry C[n+]1c2ccc(Cl)cc2nc2cc(-c3ccccc3)ccc21 : reported GI50 = ?
Given back: 14.7 µM (inactive)

Asked: Entry COc1ccccc1-n1cnc2c1=NC(C)(C)NC=2C(N)=O : reported GI50 = ?
Given back: > 100 µM (inactive)

Asked: Entry CCN(CC)C(=O)C1=C(C)NC(C)=C(C(=O)N(CC)CC)C1 : reported GI50 = ?
Given back: 53 µM (inactive)

Asked: Entry CCc1nc(N)nc(N)c1-c1ccc(N2CCNCC2)cc1 : reported GI50 = ?
Given back: 84.7 µM (inactive)

Asked: Entry CC1(C)/C(=N\NC(N)=O)C2CCC1C2 (configuration not stated) : reported GI50 = ?
Given back: > 100 µM (inactive)

Asked: Entry Cc1cccc(-c2nnc(S)[nH]2)c1 : reported GI50 = ?
Given back: > 100 µM (inactive)

Asked: Entry COC(=O)c1cccn1C(=O)n1cccc1 : reported GI50 = ?
Given back: > 100 µM (inactive)

Asked: Entry CCCCCCCCCCCCCCCCOP(=O)(O)OCC(N)C(=O)O (configuration not stated) : reported GI50 = ?
Given back: 18.5 µM (inactive)

Every entry's value here was drawn from ChEMBL document CHEMBL1201862.
